For each record, write down the corresponding viability, T/C.
# System: 777334-354-R2-J4-PDC tumor spheroids with HUVEC/MSC, viability;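 further: spheroids exposed to compounds for 7 days before readout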
# testDescription: Anticancer human tumor 777334-354-R2-J4-PDC patient-derived pancreatic adenocarcinoma cell line growth inhibition [GQUAD]
# measurementParameters: second compound 0.0316 µM; first compound 0.0999 µM; hits give low values
Respond numerically; units are % and should not be typed.

Task: Using known records, supply viability, T/C for Cc1[nH]c2ccccc2c1CCNCc1ccc(/C=C/C(=O)NO)cc1 + Cc1cnc(CNC(=O)c2c(=O)c3ccc(N4CCCN(C)CC4)nc3n3c2sc2ccccc23)cn1
Output: 57.9

Task: Using known records, supply viability, T/C for Cn1ncnc1[C@H]1c2n[nH]c(=O)c3cc(F)cc(c23)N[C@@H]1c1ccc(F)cc1 + CN(C)c1ccc(Nc2c3ccc(NC(=O)CCN4CCCC4)cc3nc3cc(NC(=O)CCN4CCCC4)ccc23)cc1
Output: 92.2

Task: Using known records, supply viability, T/C for CCc1c2c(nc3ccc(O)cc13)-c1cc3c(c(=O)n1C2)COC(=O)[C@]3(O)CC + Cc1cnc(CNC(=O)c2c(=O)c3ccc(N4CCCN(C)CC4)nc3n3c2sc2ccccc23)cn1
Output: 13.8
